test target: human NLRP3 (Homo sapiens, UniProt Q96P20)
Sequence (Q96P20 whole entry): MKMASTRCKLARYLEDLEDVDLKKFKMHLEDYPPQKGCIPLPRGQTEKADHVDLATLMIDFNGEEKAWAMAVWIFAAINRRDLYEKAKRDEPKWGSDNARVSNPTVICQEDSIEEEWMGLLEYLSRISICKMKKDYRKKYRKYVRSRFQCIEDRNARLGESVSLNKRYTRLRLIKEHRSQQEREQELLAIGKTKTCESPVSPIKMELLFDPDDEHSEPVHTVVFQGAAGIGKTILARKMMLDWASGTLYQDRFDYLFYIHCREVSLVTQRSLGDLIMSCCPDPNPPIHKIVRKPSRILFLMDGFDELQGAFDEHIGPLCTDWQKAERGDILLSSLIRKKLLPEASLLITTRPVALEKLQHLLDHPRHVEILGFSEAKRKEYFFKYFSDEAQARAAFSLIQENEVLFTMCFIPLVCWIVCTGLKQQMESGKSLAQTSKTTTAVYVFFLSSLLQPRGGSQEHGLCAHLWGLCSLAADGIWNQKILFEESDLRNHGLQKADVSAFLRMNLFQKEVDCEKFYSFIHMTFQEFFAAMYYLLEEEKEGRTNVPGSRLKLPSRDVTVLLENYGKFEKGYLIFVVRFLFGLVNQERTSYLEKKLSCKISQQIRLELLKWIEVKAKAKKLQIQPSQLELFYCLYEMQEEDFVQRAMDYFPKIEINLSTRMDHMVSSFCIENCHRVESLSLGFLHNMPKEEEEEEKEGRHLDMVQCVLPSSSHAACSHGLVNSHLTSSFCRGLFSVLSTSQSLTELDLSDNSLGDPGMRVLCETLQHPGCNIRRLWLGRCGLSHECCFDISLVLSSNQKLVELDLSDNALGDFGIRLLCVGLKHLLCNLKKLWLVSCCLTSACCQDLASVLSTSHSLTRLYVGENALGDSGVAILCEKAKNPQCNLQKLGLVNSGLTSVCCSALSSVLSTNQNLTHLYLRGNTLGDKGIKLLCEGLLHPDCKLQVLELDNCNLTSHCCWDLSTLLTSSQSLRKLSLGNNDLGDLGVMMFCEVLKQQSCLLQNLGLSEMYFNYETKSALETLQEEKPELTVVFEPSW
test summary: Human Whole Blood (hWB) NLRP3 Assay (LPS/ATP, IL-1β)
Assay type: cell-based
Set-up: host or cells: human whole blood from healthy volunteers (A3)
condition description: Table C
reported metric: IC50 (nM)
Give the number; nM is assumed, so skip it.

Consider the reported IC50 for these molecules:
| molecule | reading unit | IC50 |
| --- | --- | --- |
| C[C@@H]1C[C@@H](NC(=O)N(C)c2ccc(OC(F)F)cc2)[C@H]2CC[C@@H]1N2c1nnn[nH]1 (single isomer, unassigned) [42A*] | nM | 290 |
| C[C@@H]1CCN(c2nnn[nH]2)C[C@H](NC(=O)N(C)c2ccc(OC(F)(F)F)cc2F)C1 (single isomer, unassigned) [24A*] | nM | 260 |
| C[C@@H]1CCN(c2nnn[nH]2)C[C@H](NC(=O)N(C)c2ccc(OC(F)F)cc2)C1 (single isomer, unassigned) [11A*] | nM | 58 |
| C[C@@H]1C[C@@H](NC(=O)N(C)c2ccc(OC(F)(F)F)cc2)[C@H]2CC[C@@H]1N2c1nnn[nH]1 (single isomer, unassigned) [45A*] | nM | 420 |
| C[C@@H]1CCN(c2nnn[nH]2)C[C@H](NC(=O)N(C)c2ccc(Cl)cc2)C1 (single isomer, unassigned) | nM | 150 |

As a next step, examine the molecule that follows.
Qu. I am curious: what IC50 value has been reported for C[C@@H]1C[C@@H](NC(=O)N(C)c2ccc(OC(F)F)cc2F)[C@H]2CC[C@@H]1N2c1nnn[nH]1 (single isomer, unassigned) [57A*] ?
Ans. 190
